tgt: Opioid receptors; delta & kappa (Homo sapiens) (UniProt P41145+P41143)
Sequence (P41143 whole entry, looked up): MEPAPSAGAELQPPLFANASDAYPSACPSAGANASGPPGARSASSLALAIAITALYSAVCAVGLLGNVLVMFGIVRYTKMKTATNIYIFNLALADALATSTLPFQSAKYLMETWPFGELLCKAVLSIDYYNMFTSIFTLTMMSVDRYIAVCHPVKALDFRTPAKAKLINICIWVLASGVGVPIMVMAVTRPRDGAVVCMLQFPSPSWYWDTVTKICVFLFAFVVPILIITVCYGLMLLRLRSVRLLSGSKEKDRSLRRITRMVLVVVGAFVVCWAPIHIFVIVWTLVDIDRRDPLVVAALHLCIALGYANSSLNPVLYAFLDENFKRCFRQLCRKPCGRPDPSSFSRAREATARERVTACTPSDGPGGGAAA
Sequence (P41145 whole entry, looked up): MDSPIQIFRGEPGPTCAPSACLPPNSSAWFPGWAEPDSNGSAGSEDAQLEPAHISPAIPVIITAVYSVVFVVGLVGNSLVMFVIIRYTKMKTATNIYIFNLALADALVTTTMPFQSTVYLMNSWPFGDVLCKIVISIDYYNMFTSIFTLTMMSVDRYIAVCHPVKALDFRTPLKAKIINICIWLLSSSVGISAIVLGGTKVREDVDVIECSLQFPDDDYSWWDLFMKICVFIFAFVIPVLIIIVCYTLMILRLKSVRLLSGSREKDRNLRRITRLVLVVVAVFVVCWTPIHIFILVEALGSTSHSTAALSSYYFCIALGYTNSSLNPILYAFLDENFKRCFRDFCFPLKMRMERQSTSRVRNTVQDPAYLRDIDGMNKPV
measurement_notes: Selectivity for kappa opioid receptor over delta opioid receptor
Type: protein assay

{"compound": "CNC(=O)Oc1ccc2c(c1)C13CCCCC1C(C2)N(C)CC3 (centres undefined)", "Ratio Ki": 16}
{"compound": "O=C(NCc1ccccc1)Oc1ccc2c(c1)C13CCCCC1C(C2)N(CC1CC1)CC3 (single isomer, unassigned; (-))", "Ratio Ki": 20}
{"compound": "CCNC(=O)Oc1ccc2c(c1)C13CCCCC1C(C2)N(CC1CCC1)CC3 (centres undefined)", "Ratio Ki": 6}
{"compound": "O=C(Nc1ccccc1)Oc1ccc2c(c1)C13CCCCC1C(C2)N(CC1CCC1)CC3 (single isomer, unassigned; (-))", "Ratio Ki": 76}

====

Mu-type opioid receptor (Homo sapiens): recorded pKi for assorted compounds
Sequence (P35372 whole entry): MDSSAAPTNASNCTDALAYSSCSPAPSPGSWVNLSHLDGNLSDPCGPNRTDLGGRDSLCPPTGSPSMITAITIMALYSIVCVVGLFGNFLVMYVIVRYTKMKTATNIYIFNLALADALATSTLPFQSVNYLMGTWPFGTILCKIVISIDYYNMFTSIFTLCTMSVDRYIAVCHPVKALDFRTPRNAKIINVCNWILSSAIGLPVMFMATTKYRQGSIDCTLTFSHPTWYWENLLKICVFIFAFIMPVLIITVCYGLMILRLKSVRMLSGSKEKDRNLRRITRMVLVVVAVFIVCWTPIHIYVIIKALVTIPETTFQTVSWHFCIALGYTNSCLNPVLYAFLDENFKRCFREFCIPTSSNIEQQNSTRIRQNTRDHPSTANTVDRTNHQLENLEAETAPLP
pKi: −log10 of the molar value.
assay_metric: pKi

{"compound": "O=C(NCc1ccccc1)Oc1ccc2c(c1)C13CCCCC1C(C2)N(CC1CC1)CC3 (single isomer, unassigned; (-))", "readout_number": 9.52}
{"compound": "CNC(=O)Oc1ccc2c(c1)C13CCCCC1C(C2)N(C)CC3 (stereo not drawn)", "readout_number": 8.85}
{"compound": "CCNC(=O)Oc1ccc2c(c1)C13CCCCC1C(C2)N(CC1CC1)CC3 (single isomer, unassigned; (-))", "readout_number": 9.54}

====

The molecules listed here are annotated with their Emax.
tgt: Mu-type opioid receptor (Homo sapiens)
measurement_notes: Agonist activity at human mu opioid receptor expressed in CHO cells assessed as maximal stimulation of [35S]GTP-gamma-S binding
Type: functional, cell-based

{"molecule": "O=C(Nc1ccccc1)Oc1ccc2c(c1)C13CCCCC1C(C2)N(CC1CC1)CC3 (stereo not drawn)", "Emax [%]": 39}
{"molecule": "O=C(NCc1ccccc1)Oc1ccc2c(c1)C13CCCCC1C(C2)N(CC1CC1)CC3 (single isomer, unassigned; (-))", "Emax [%]": 39}
{"molecule": "CCNC(=O)Oc1ccc2c(c1)C13CCCCC1C(C2)N(CC1CC1)CC3 (single isomer, unassigned; (-))", "Emax [%]": 40}
